Molecular target: GLOD4 Glyoxalase domain-containing protein 4 (Homo sapiens, UniProt Q9HC38)
Construct: endogenous in cells; host or cells: MDA-MB-231 (soluble fraction of lysate)
Sequence (Q9HC38 whole entry, the tested form may be a part): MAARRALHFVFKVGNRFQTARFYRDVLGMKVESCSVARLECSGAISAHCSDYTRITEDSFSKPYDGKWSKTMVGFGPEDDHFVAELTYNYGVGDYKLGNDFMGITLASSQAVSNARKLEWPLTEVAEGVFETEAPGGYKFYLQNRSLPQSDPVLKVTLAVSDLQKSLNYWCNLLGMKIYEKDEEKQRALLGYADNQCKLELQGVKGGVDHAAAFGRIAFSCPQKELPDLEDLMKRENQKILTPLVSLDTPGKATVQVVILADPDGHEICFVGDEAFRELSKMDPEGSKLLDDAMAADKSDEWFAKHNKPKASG
Assay: competitive isoTOP-ABPP
Type: binding
Details: 50 uM, 231 sol, in vitro
readout: isoTOP-ABPP reactivity ratio at lysine Q9HC38_K305
Lab note: jot the number down without any unit.

Use the examples below as a reference point.
molecule | reported.measurement
O=C(CCc1cn(-c2ccccc2)nc1-c1ccccc1)Oc1ccc([N+](=O)[O-])cc1[N+](=O)[O-] | 0.9
O=C(Oc1ccc([N+](=O)[O-])cc1[N+](=O)[O-])C(c1ccccc1)c1ccccc1 [fragment 30, 2,4-Dinitrophenyl 2,2-diphenylacetate] | 0.6
O=C(Oc1c(F)c(F)c(F)c(F)c1F)c1ccc2ccccc2n1 | 0.4
O=C(Oc1c(F)c(F)c(F)c(F)c1F)C1CCN(C(=O)OCc2ccccc2)CC1 | 1.5

Query :: Using the record for `COc1cc(CCC(=O)Oc2ccc([N+](=O)[O-])cc2[N+](=O)[O-])cc(OC)c1OC` , report its isoTOP-ABPP reactivity ratio at lysine Q9HC38_K305.
Result :: 0.4

Query :: Using the record for `CCn1cc(C(=O)Oc2c(F)c(F)c(F)c(F)c2F)c(=O)c2ccc(C)nc21` , report its isoTOP-ABPP reactivity ratio at lysine Q9HC38_K305.
Result :: 1.0

Query :: Using the record for `O=C(Oc1ccc([N+](=O)[O-])cc1[N+](=O)[O-])c1cc(C(F)(F)F)cc(C(F)(F)F)c1` , report its isoTOP-ABPP reactivity ratio at lysine Q9HC38_K305.
Result :: 0.5
